All values here come from patent US9006191B2.

test system: IFIT1 mRNA, serum IFNα; details: mouse, in vivo, iv
VALUE_KIND: serum IFNα / serum cytokine response

Write down the reported serum IFNα / serum cytokine response of PLK1424-2/A: 2′OMe-modified PLK1424 duplex, SEQ ID NO:214/215 (same SEQ IDs as PLK1424 1/3 of Table 11) (chain 1 AGANCACCCNCCUNAAANAUU; chain 2 UAUUUAANGAGGGUGANCUUU; siRNA; 2'-O-methyl modifications at selected positions, key for n not given here) , test system: IFIT1 mRNA, serum IFNα. no measurable IFNα

Recorded serum IFNα / serum cytokine response for Luc-U/U: control 2′OMe siRNA targeting luciferase, SEQ ID NO:233/234 (chain 1 GANUANGNCCGGNNANGNAUU; chain 2 UACANAACCGGACANAANCUU; 2'-O-methyl modifications at selected positions, key for n not given here) [reference compound] with IFIT1 mRNA, serum IFNα, please? no measurable IFNα

Value wanted: serum IFNα / serum cytokine response (IFIT1 mRNA, serum IFNα) of entry KSP2263-U/U: 2′OMe-modified KSP2263 duplex, SEQ ID NO:227/229 (chain 1 CNGAAGACCNGAAGACAANTT; chain 2 AUUGUCUNCAGGNCUNCAGTT; siRNA; 2'-O-methyl modifications at selected positions, key for n not given here) no measurable IFNα

====

tested on: Flt3-ligand derived murine dendritic cells; assay: Cytokine induction in murine Flt3L dendritic cell cultures (ELISA); type: cell-based, mouse; conditions: murine Flt3L DC, 5 μg/ml siRNA in SNALP, 24 h
m = 2'-O-methyl; r = 2'-OH (RNA)
VALUE_KIND: cytokine (IL-6, IFN-α) response

Which measured cytokine (IL-6, IFN-α) response value corresponds to PLK773-1/B: 2′OMe-modified PLK773 duplex, SEQ ID NO:220/223 (chain 1 AGACCUACCUCCGGAUCAAUU; chain 2 UUGAUCCGNAGNUAGGNCUUU; siRNA; chain 1: sugars from the 5' end r1 m1 r10 m1 r8, backbone not given here; chain 2: chemistry not given here) ? completely abrogated

Quick check: cytokine (IL-6, IFN-α) response of PLK1424-2/A: 2′OMe-modified PLK1424 duplex, SEQ ID NO:214/215 (same SEQ IDs as PLK1424 1/3 of Table 11) (chain 1 AGANCACCCNCCUNAAANAUU; chain 2 UAUUUAANGAGGGUGANCUUU; siRNA; 2'-O-methyl modifications at selected positions, key for n not given here) ? completely abrogated
